System: 362531-283-R-J2-PDC complex spheroid viability
PROTOCOL: Anticancer human tumor 362531-283-R-J2-PDC patient-derived colon adenocarcinoma cell line growth inhibition [RAS]
CONDITION NOTES: second compound 0.00949 µM; first compound 0.000949 µM; stronger effect = lower value
ATTRIBUTE MEASURED: viability, T/C

Field: example entries. Status: answers known.
# lookup: viability, T/C of CC1(C)CCC(Nc2ncc(C(F)(F)F)c(-c3c[nH]c4c(P(C)(C)=O)c(C#N)ccc34)n2)CN1 (centres undefined) + CCn1c(-c2cc(N3CCN(C)CC3)cnc2C(C)OC)c2c3cc(ccc31)-c1csc(n1)CC(NC(=O)C1CC1C)C(=O)N1CCCC(N1)C(=O)OCC(C)(C)C2
103%

If you can, please state the reported viability, T/C value of CC1(C)CCC(Nc2ncc(C(F)(F)F)c(-c3c[nH]c4c(P(C)(C)=O)c(C#N)ccc34)n2)CN1 (centres undefined) + CCn1c(-c2cccnc2C(C)OC)c2c3cc(ccc31)N1CCOC(CC(NC(=O)C(C(C)C)N(C)C(=O)C3(F)CCN(C(=O)C#CC(C)(C)N(C)C)CC3)C(=O)N3CCCC(N3)C(=O)OCC(C)(C)C2)C1 .
97.5%

# lookup: viability, T/C of CCc1c2c(nc3ccc(O)cc13)-c1cc3c(c(=O)n1C2)COC(=O)[C@]3(O)CC + CCn1c(-c2cc(N3CCN(C)CC3)cnc2C(C)OC)c2c3cc(ccc31)-c1csc(n1)CC(NC(=O)C1CC1C)C(=O)N1CCCC(N1)C(=O)OCC(C)(C)C2
101%

Others:
Any idea what its viability, T/C is? The molecule is CCc1c2c(nc3ccc(O)cc13)-c1cc3c(c(=O)n1C2)COC(=O)[C@]3(O)CC + CCn1c(-c2cccnc2C(C)OC)c2c3cc(ccc31)N1CCOC(CC(NC(=O)C(C(C)C)N(C)C(=O)C3(F)CCN(C(=O)C#CC(C)(C)N(C)C)CC3)C(=O)N3CCCC(N3)C(=O)OCC(C)(C)C2)C1
101%

----------
System: 362531-283-R-J2-PDC complex spheroid viability
PROTOCOL: Anticancer human tumor 362531-283-R-J2-PDC cell line growth inhibition [RAS];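 further: spheroids exposed to the agents for 7 days before readout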;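 on viability, T/C: luminescence viability as percent of DMSO vehicle control wells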
CONDITION NOTES: second compound 0.00949 µM; first compound 0.01 µM; stronger effect = lower value
From the text: RAS pathway inhibitors in Combinations in Complex Spheroids A high-throughput screen of multi-cell type tumor spheroids was designed to identify active combinations of RAS pathway inhibitors and targeted small molecules. Complex spheroids include a stromal component modeled by human endothelial cells (HUVEC) and fibroblasts modeled by human mesenchymal stem cells (MSCs). […] Compounds. […] If the clinical Cmax for an agent had not been determined, the highest concentration tested was 10 microM. […]
ATTRIBUTE MEASURED: viability, T/C (%)
Numeric only. Scale: %

Quick one: viability, T/C of C=CC(=O)Nc1cc(Nc2nccc(-c3cn(C)c4ccccc34)n2)c(OC)cc1N(C)CCN(C)C + CCn1c(-c2cccnc2C(C)OC)c2c3cc(ccc31)N1CCOC(CC(NC(=O)C(C(C)C)N(C)C(=O)C3(F)CCN(C(=O)C#CC(C)(C)N(C)C)CC3)C(=O)N3CCCC(N3)C(=O)OCC(C)(C)C2)C1 ?
103

Fill blank: measured viability, T/C of the compound C=CC(=O)N1CCN(c2nc(OCC3CCCN3C)nc3c(F)c(-c4nc(N)cc(C)c4C(F)(F)F)c(Cl)cc23)C(C)C1 (centres undefined) + CCn1c(-c2cc(N3CCN(C)CC3)cnc2C(C)OC)c2c3cc(ccc31)-c1csc(n1)CC(NC(=O)C1CC1C)C(=O)N1CCCC(N1)C(=O)OCC(C)(C)C2 is ____.
108

Would you kindly share the measured viability, T/C for Nc1ccn(C2OC(CO)C(O)C2(F)F)c(=O)n1 (centres undefined) + CCn1c(-c2cccnc2C(C)OC)c2c3cc(ccc31)N1CCOC(CC(NC(=O)C(C(C)C)N(C)C(=O)C3(F)CCN(C(=O)C#CC(C)(C)N(C)C)CC3)C(=O)N3CCCC(N3)C(=O)OCC(C)(C)C2)C1 ?
93.2

Entry under review: O=C(c1ccc(F)c(F)c1Nc1ccc(I)cc1F)N1CC(O)([C@@H]2CCCCN2)C1 + CCn1c(-c2cccnc2C(C)OC)c2c3cc(ccc31)N1CCOC(CC(NC(=O)C(C(C)C)N(C)C(=O)C3(F)CCN(C(=O)C#CC(C)(C)N(C)C)CC3)C(=O)N3CCCC(N3)C(=O)OCC(C)(C)C2)C1 . Reported viability, T/C?
108

----------
In this section we review reported viability, T/C values for a set of molecules.
Test system: 362531-283-R-J2-PDC complex spheroid viability
PROTOCOL: Anticancer human tumor 362531-283-R-J2-PDC cell line growth inhibition [RAS];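 further: spheroids exposed to the agents for 7 days before readout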;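 on viability, T/C: luminescence viability as percent of DMSO vehicle control wells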
CONDITION NOTES: second compound 0.0949 µM; first compound 0.01 µM; stronger effect = lower value

What value of viability, T/C has been recorded for this entry: O=C(c1ccc(F)c(F)c1Nc1ccc(I)cc1F)N1CC(O)([C@@H]2CCCCN2)C1 + CCn1c(-c2cccnc2C(C)OC)c2c3cc(ccc31)N1CCOC(CC(NC(=O)C(C(C)C)N(C)C(=O)C3(F)CCN(C(=O)C#CC(C)(C)N(C)C)CC3)C(=O)N3CCCC(N3)C(=O)OCC(C)(C)C2)C1
103%

So what's the measured viability, T/C for this one? CCN1CCN(Cc2ccc(Nc3ncc(F)c(-c4cc(F)c5nc(C)n(C(C)C)c5c4)n3)nc2)CC1 + CCn1c(-c2cccnc2C(C)OC)c2c3cc(ccc31)N1CCOC(CC(NC(=O)C(C(C)C)N(C)C(=O)C3(F)CCN(C(=O)C#CC(C)(C)N(C)C)CC3)C(=O)N3CCCC(N3)C(=O)OCC(C)(C)C2)C1
88.3%

# viability, T/C lookup, item Nc1ccn(C2OC(CO)C(O)C2(F)F)c(=O)n1 (stereo not drawn) + CCn1c(-c2cccnc2C(C)OC)c2c3cc(ccc31)N1CCOC(CC(NC(=O)C(C(C)C)N(C)C(=O)C3(F)CCN(C(=O)C#CC(C)(C)N(C)C)CC3)C(=O)N3CCCC(N3)C(=O)OCC(C)(C)C2)C1
91.7%

Next:
viability, T/C lookup needed for CC(C)n1nc(-c2ccc3oc(N)nc3c2)c2c(N)ncnc21 + CCn1c(-c2cc(N3CCN(C)CC3)cnc2C(C)OC)c2c3cc(ccc31)-c1csc(n1)CC(NC(=O)C1CC1C)C(=O)N1CCCC(N1)C(=O)OCC(C)(C)C2 , thanks.
63.1%

What value of viability, T/C has been reported for the following molecule? C=CC(=O)N1CCN(c2nc(OCC3CCCN3C)nc3c(F)c(-c4nc(N)cc(C)c4C(F)(F)F)c(Cl)cc23)C(C)C1 (stereo not drawn) + CCn1c(-c2cccnc2C(C)OC)c2c3cc(ccc31)N1CCOC(CC(NC(=O)C(C(C)C)N(C)C(=O)C3(F)CCN(C(=O)C#CC(C)(C)N(C)C)CC3)C(=O)N3CCCC(N3)C(=O)OCC(C)(C)C2)C1
95.7%

Dear colleague, I am looking for the recorded viability, T/C of the following molecule: CC(C)n1nc(-c2ccc3oc(N)nc3c2)c2c(N)ncnc21 + CCn1c(-c2cccnc2C(C)OC)c2c3cc(ccc31)N1CCOC(CC(NC(=O)C(C(C)C)N(C)C(=O)C3(F)CCN(C(=O)C#CC(C)(C)N(C)C)CC3)C(=O)N3CCCC(N3)C(=O)OCC(C)(C)C2)C1
106%

Find the recorded viability, T/C belonging to CCN1CCN(Cc2ccc(Nc3ncc(F)c(-c4cc(F)c5nc(C)n(C(C)C)c5c4)n3)nc2)CC1 + CCn1c(-c2cc(N3CCN(C)CC3)cnc2C(C)OC)c2c3cc(ccc31)-c1csc(n1)CC(NC(=O)C1CC1C)C(=O)N1CCCC(N1)C(=O)OCC(C)(C)C2 and report it.
81%

Given the molecule Nc1ccn(C2OC(CO)C(O)C2(F)F)c(=O)n1 (stereo not drawn) + CCn1c(-c2cc(N3CCN(C)CC3)cnc2C(C)OC)c2c3cc(ccc31)-c1csc(n1)CC(NC(=O)C1CC1C)C(=O)N1CCCC(N1)C(=O)OCC(C)(C)C2 , what is its reported viability, T/C?
80%

----------
Tested on: 362531-283-R-J2-PDC complex spheroid viability
PROTOCOL: Anticancer human tumor 362531-283-R-J2-PDC cell line growth inhibition [RAS];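 further: spheroids exposed to the agents for 7 days before readout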
CONDITION NOTES: curve of first compound; second compound 0.0949 µM
Source text: RAS pathway inhibitors in Combinations in Complex Spheroids A high-throughput screen of multi-cell type tumor spheroids was designed to identify active combinations of RAS pathway inhibitors and targeted small molecules. Complex spheroids include a stromal component modeled by human endothelial cells (HUVEC) and fibroblasts modeled by human mesenchymal stem cells (MSCs). […] Compounds. […] If the clinical Cmax for an agent had not been determined, the highest concentration tested was 10 microM. […]
Attribute: IC50
Note: unit nM is implicit; provide only the numeric part.

For the molecule CCC(CC)c1cc(NC2CCC(N)C2)n2nccc2n1 (centres undefined) + CCn1c(-c2cc(N3CCN(C)CC3)cnc2C(C)OC)c2c3cc(ccc31)-c1csc(n1)CC(NC(=O)C1CC1C)C(=O)N1CCCC(N1)C(=O)OCC(C)(C)C2 , what IC50 is on record?
4690

Returns the measured IC50 for the input molecule. Input: CCN1CCN(Cc2ccc(Nc3ncc(F)c(-c4cc(F)c5nc(C)n(C(C)C)c5c4)n3)nc2)CC1 + CCn1c(-c2cc(N3CCN(C)CC3)cnc2C(C)OC)c2c3cc(ccc31)-c1csc(n1)CC(NC(=O)C1CC1C)C(=O)N1CCCC(N1)C(=O)OCC(C)(C)C2
112

Next molecule, IC50 to be filled in.
Can you share its IC50? I mean this molecule: CC(Nc1ccc2c(c1)OCCn1cc(N3C(=O)OCC3C(F)F)nc1-2)C(N)=O (centres undefined) + CCn1c(-c2cccnc2C(C)OC)c2c3cc(ccc31)N1CCOC(CC(NC(=O)C(C(C)C)N(C)C(=O)C3(F)CCN(C(=O)C#CC(C)(C)N(C)C)CC3)C(=O)N3CCCC(N3)C(=O)OCC(C)(C)C2)C1
1650
